Hey, just so you know, these numbers are from PubChem BioAssay.

EXPERIMENTAL DETAILS: basal RPMI8226 mitochondrial membrane potential changes, profiling panel, cell-based, JC-1 fluorescence, 24 h, 100 nL compound (AID 1169); note: test concentration not given here
PARTICULARS: RPMI8226 myeloma, JC-1 mitochondrial potential fluorescence, higher = more signal
Assign class by z-score: not lower than -0.1 means Criterion met; lower than -0.1 means Criterion not met.

Below are worked cases with known answers.
Incoming: Confirm if z-score reported for the compound CC(C)[Si]1(C(C)C)O[C@@H](c2ccccc2)c2cc(-c3ccc(-c4ccc(Cl)c(Cl)c4)o3)nc(-c3ccccc3)c21 is -0.1 or above.
Outgoing: Criterion not met

Incoming: Confirm if z-score reported for the compound CCCCN1CC=CC23O[C@@H]4C=CCCOC(=O)C4[C@H]2C(=O)N(CCCCCCO)[C@@H]3C1=O (some centres not stated) is -0.1 or above.
Outgoing: Criterion not met

Incoming: Confirm if z-score reported for the compound C=C(C)[C@@H]1CC=C(C(O)C2C=CC3C(=O)N(c4ccccc4)C(=O)C3N2Nc2ccccc2)CC1 (some centres not stated) is -0.1 or above.
Outgoing: Criterion not met

More entries:
Incoming: Confirm if z-score reported for the compound CC(C)N1C(=O)[C@@]2(Cc3ccccc31)c1ccccc1C(=O)N(Cc1ccccc1Cl)[C@H]2c1ccc(CO)cc1 is -0.1 or above.
Outgoing: Criterion met

Incoming: Confirm if z-score reported for the compound CCS[C@H]1[C@@H](C(=O)O)[C@H](c2ccc(C)cc2)N(S(=O)(=O)c2ccc(C)cc2)[C@@H]1CC is -0.1 or above.
Outgoing: Criterion met

Incoming: Confirm if z-score reported for the compound NC(=O)NCC#Cc1ccc2c(c1)[C@]1(C(=O)N2)[C@H](C(=O)Nc2nc3ccccc3s2)[C@H]2C(=O)O[C@H](c3ccccc3)[C@H](c3ccccc3)N2[C@@H]1c1ccccc1OCCO is -0.1 or above.
Outgoing: Criterion not met

Incoming: Confirm if z-score reported for the compound CC(C)C(=C=CC[C@H](O)c1ccc(OCCO)cc1)CCO is -0.1 or above.
Outgoing: Criterion not met

* * *

Each entry below carries its recorded composite z-score.
SYSTEM TESTED: Pro-neuregulin-1, membrane-bound isoform (Homo sapiens) (UniProt Q02297)
Sequence (Q02297 whole entry, looked up, canonical isoform): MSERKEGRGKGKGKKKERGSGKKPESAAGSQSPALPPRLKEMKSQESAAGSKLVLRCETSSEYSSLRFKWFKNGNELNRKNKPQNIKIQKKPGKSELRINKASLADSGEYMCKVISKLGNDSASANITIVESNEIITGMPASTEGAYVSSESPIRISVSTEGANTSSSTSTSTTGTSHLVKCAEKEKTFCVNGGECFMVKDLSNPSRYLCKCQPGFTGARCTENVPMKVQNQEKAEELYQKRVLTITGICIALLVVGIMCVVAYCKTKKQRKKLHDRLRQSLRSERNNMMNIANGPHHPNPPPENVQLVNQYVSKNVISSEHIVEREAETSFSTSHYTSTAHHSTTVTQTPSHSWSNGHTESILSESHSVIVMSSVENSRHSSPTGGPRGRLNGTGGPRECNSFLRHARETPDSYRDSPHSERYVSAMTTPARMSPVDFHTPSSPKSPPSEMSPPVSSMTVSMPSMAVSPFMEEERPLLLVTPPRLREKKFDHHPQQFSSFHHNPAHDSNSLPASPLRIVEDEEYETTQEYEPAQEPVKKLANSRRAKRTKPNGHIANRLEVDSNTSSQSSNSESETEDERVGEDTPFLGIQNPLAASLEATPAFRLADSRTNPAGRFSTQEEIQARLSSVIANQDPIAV
EXPERIMENTAL DETAILS: NRG1 binders on small-molecule microarrays, primary screen, psychiatric disease protein project, biochemical, small-molecule microarray, fluorescence 635/667 (AID 1075);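 note: score combines 667 nm spot fluorescence with signal to noise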
PARTICULARS: NRG1 binding, 635 nm fluorescence, higher = more signal
Kindly provide the number alone.

Incoming: Using the record for C[C@H]1NC(=O)[C@@]23C(=O)N[C@@H](Cc4ccccc4)C2[C@H](C)[C@@]2(C)O[C@H]2C3/C=C/C/C=C\CNC(=O)[C@@H]2CCCN2C1=O (stereo not given in full) , report its composite z-score.
Outgoing: 0.425

Incoming: Using the record for C=C(CC1([C@@H](NP(=O)(c2ccccc2)c2ccccc2)[C@H]2C[C@@H]2CCCC)CC1)c1ccccc1 , report its composite z-score.
Outgoing: 0.896

Incoming: Using the record for CCOC(=O)[C@H]1C/C=C/C[C@H](C(=O)OCC)C(=O)O[C@H]2[C@@H](OC)O[C@H](CO)[C@@H](OC(=O)c3c(OC)cccc3OC)[C@@H]2OC1=O , report its composite z-score.
Outgoing: 1.12

Incoming: Using the record for COc1ccc(/C=C/C=O)cc1 , report its composite z-score.
Outgoing: -0.802

Incoming: Using the record for COCCOC(=O)N1C(=O)[C@@]2(c3cc(C#CCNC(N)=O)ccc31)[C@H](C(=O)N1CCN(c3ncccn3)CC1)[C@H]1C(=O)O[C@H](c3ccccc3)[C@H](c3ccccc3)N1[C@@H]2c1ccc(OCCO)cc1 , report its composite z-score.
Outgoing: 0.821

More entries:
Incoming: Using the record for CC(C)=CCCC(C)=CC(O)C1C=CC2C(=O)N(C)C(=O)C2N1Nc1ccccc1 (stereo not given) , report its composite z-score.
Outgoing: 1.72

Incoming: Using the record for CCc1cccc(NC(=O)O[C@H]2[C@H](OC(=O)Nc3ccccc3-c3ccccc3)[C@@H](OC(=O)Nc3ccccc3-c3ccccc3)[C@@H](OC)O[C@@H]2CO)c1 , report its composite z-score.
Outgoing: 1.88
